target: angiotensin II receptor subtype 1 (AT1) (Oryctolagus cuniculus); construct: receptor: from adrenal glands in rabbits; from tissue; host or cells: rabbit adrenal glands; experiment: Binding assay, angiotensin II receptor subtype 1 (AT1); parameters: species or system rabbit (adrenal glands); conditions: 100 μM, AT1, rabbit adrenal glands
Recorded inhibition at 100 µM values for a group of compounds are listed next.
Measured Metric: inhibition at 100 µM (%)

[[record]]
compound = "CCCCCN(C)c1c(NCc2ccc(-c3ccccc3-c3nn[nH]n3)cc2)cc(C(=O)N2CCOCC2)cc1NC(=O)C(c1ccccc1)c1ccccc1"
measurement_target = "angiotensin II receptor subtype 1 (AT1) (Oryctolagus cuniculus)"
measured_metric = "inhibition at 100 µM"
assay_value = 36

[[record]]
compound = "CCCCCN(C)c1c(NCc2ccc(C(=O)O)cc2)cc(S(=O)(=O)N2CCOCC2)cc1NC(=O)C(c1ccccc1)c1ccccc1"
measurement_target = "angiotensin II receptor subtype 1 (AT1) (Oryctolagus cuniculus)"
measured_metric = "inhibition at 100 µM"
assay_value = 36

[[record]]
compound = "CCCCC(=O)N(Cc1ccc(-c2nn[nH]n2)cc1)c1cc(C(=O)N2CCOCC2)ccc1N(C)C"
measurement_target = "angiotensin II receptor subtype 1 (AT1) (Oryctolagus cuniculus)"
measured_metric = "inhibition at 100 µM"
assay_value = 15


* * *

Recorded Urea nitrogen values for a group of molecules are listed next.
system: kidney disease model rats; test: Renal function indicatory value (action to kidney diseases); format: in vivo, Sprague-Dawley female rats; conditions: serum, 20 mg/kg/day per os, two weeks; control 100
Measured Metric: Urea nitrogen (mg/dL)

[[record]]
compound = "CCCCC(=O)Nc1ccc(C(=O)N2CCOCC2)cc1NCc1ccc(-c2ccccc2-c2nnn[nH]2)cc1"
assay_value = 72

[[record]]
compound = "CCCCCN(Cc1ccc(C(=O)O)cc1)c1cc(C(=O)N2CCOCC2)ccn1"
assay_value = 72

[[record]]
compound = "CCCCC(=O)Nc1ccc(C(=O)N(CC)CC)cc1NCc1ccc(-c2ccccc2-c2nn[nH]n2)cc1"
assay_value = 76

[[record]]
compound = "CCCCC(=O)N(Cc1ccc(C(=O)O)cc1)c1cc(C(=O)N2CCOCC2)ccc1N(C)C"
assay_value = 70

[[record]]
compound = "CCCCCN(C)c1ccc(C(=O)N2CCOCC2)cc1NCc1ccc(C(=O)O)cc1"
assay_value = 72

[[record]]
compound = "CCCCC(=O)N(Cc1ccc(-c2ccccc2-c2nn[nH]n2)cc1)c1cc(C(=O)N2CCOCC2)ccc1N(C)C"
assay_value = 76

[[record]]
compound = "CCCCC(=O)N(Cc1ccc(C(=O)O)cc1)c1cc(C(=O)N2CCOCC2)ccn1"
assay_value = 74

[[record]]
compound = "CCCCC(=O)N(Cc1ccc(-c2nn[nH]n2)cc1)c1cc(C(=O)N2CCOCC2)ccc1N(C)C"
assay_value = 75

[[record]]
compound = "CCCCC(=O)Nc1ccc(C(=O)N2CCOCC2)cc1NCc1ccc(C(=O)O)cc1"
assay_value = 75

[[record]]
compound = "CCCCC(=O)Nc1ccc(C(=O)N2CCOCC2)cc1OCc1ccc(-c2ccccc2-c2nnn[nH]2)cc1"
assay_value = 77

[[record]]
compound = "CCCCCN(C)c1c(NCc2ccc(-c3ccccc3-c3nn[nH]n3)cc2)cc(S(=O)(=O)N2CCOCC2)cc1NC(=O)CCc1ccccc1"
assay_value = 73

[[record]]
compound = "CCCCCN(Cc1ccc(C(=O)O)cc1)c1cccc(C(=O)N2CCOCC2)c1"
assay_value = 74

[[record]]
compound = "CCCCC(=O)Nc1ccc(C(=O)N2CCOCC2)cc1N(Cc1ccc(-c2ccccc2-c2nn[nH]n2)cc1)Cc1ccc(-c2ccccc2-c2nn[nH]n2)cc1"
assay_value = 77

[[record]]
compound = "CCCCCN(C)c1ccc(S(=O)(=O)N2CCOCC2)cc1NCc1ccc(C(=O)O)cc1"
assay_value = 78

[[record]]
compound = "CCCCCN(Cc1ccc(C(=O)O)cc1)c1cc(C(=O)N2CCOCC2)ccc1N(C)C"
assay_value = 73


* * *

Molecular target: angiotensin II receptor subtype 1 (AT1) (Oryctolagus cuniculus)
Construct: receptor: from adrenal glands in rabbits; from tissue; host or cells: rabbit adrenal glands
Sequence (P34976 1-359): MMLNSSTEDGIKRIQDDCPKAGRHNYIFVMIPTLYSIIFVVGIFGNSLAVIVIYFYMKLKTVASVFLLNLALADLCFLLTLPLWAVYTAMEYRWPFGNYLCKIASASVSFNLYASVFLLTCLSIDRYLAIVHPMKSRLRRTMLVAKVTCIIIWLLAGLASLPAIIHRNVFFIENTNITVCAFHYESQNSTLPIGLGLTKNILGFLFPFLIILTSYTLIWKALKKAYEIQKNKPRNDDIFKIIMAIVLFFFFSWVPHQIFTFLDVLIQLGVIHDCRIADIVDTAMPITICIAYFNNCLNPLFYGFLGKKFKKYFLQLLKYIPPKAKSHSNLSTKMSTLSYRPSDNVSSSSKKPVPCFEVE
Experiment: Binding assay, angiotensin II receptor subtype 1 (AT1)
Design: species or system rabbit (adrenal glands)
Conditions: 100 μM, AT1, rabbit adrenal glands
Measured Metric: inhibition at 100 µM (%)

[[record]]
compound = "CCCCCN(Cc1ccc(C(=O)O)cc1)c1cc(C(=O)N2CCOCC2)ccc1N(C)C [Compound No. 252]"
measured_metric = "inhibition at 100 µM"
unit_name = "%"
assay_value = 34

[[record]]
compound = "CCCCC(=O)N(Cc1ccc(C(=O)O)cc1)c1cc(C(=O)N2CCOCC2)ccc1C(C)C [Compound No. 372]"
measured_metric = "inhibition at 100 µM"
unit_name = "%"
assay_value = 2

[[record]]
compound = "CCCCCN(Cc1ccc(C(=O)O)cc1)c1cccc(C(=O)N2CCOCC2)c1 [Compound No. 158]"
measured_metric = "inhibition at 100 µM"
unit_name = "%"
assay_value = 18

[[record]]
compound = "CCCCCN(C)c1ccc(C(=O)N2CCOCC2)cc1NCc1ccc(C(=O)O)cc1 [Compound No. 41]"
measured_metric = "inhibition at 100 µM"
unit_name = "%"
assay_value = 26

[[record]]
compound = "CCCCC(=O)N(Cc1ccc(C(=O)O)cc1)c1cc(S(=O)(=O)N2CCOCC2)ccc1N(C)C [Compound No. 597]"
measured_metric = "inhibition at 100 µM"
unit_name = "%"
assay_value = 0

[[record]]
compound = "CCCCC(=O)N(Cc1ccc(C(=O)O)cc1)c1cc(C(=O)N2CCOCC2)ccc1N(C)C [Compound No. 184]"
measured_metric = "inhibition at 100 µM"
unit_name = "%"
assay_value = 0

[[record]]
compound = "CCCCC(=O)N(Cc1ccc(-c2ccccc2-c2nn[nH]n2)cc1)c1cc(C(=O)N2CCOCC2)ccc1N(C)C [Compound No. 591]"
measured_metric = "inhibition at 100 µM"
unit_name = "%"
assay_value = 35

[[record]]
compound = "CCCCC(=O)N(Cc1ccc(C(=O)O)cc1)c1cc(C(=O)N2CCOCC2)ccn1 [Compound No. 467]"
measured_metric = "inhibition at 100 µM"
unit_name = "%"
assay_value = 16

[[record]]
compound = "CCCCCN(C)c1c(NCc2ccc(-c3ccccc3-c3nn[nH]n3)cc2)cc(S(=O)(=O)N2CCOCC2)cc1NC(=O)CCc1ccccc1 [Compound No. 599]"
measured_metric = "inhibition at 100 µM"
unit_name = "%"
assay_value = 38

[[record]]
compound = "CCCCCCc1ccc(C(=O)N2CCOCC2)cc1NCc1ccc(C(=O)O)cc1 [Compound No. 75]"
measured_metric = "inhibition at 100 µM"
unit_name = "%"
assay_value = 15

[[record]]
compound = "CCCCC(=O)Nc1ccc(C(=O)N2CCOCC2)cc1NCc1ccc(C(=O)O)cc1 [Compound No. 1]"
measured_metric = "inhibition at 100 µM"
unit_name = "%"
assay_value = 33

[[record]]
compound = "CCCCCN(C)c1ccc(S(=O)(=O)N2CCOCC2)cc1NCc1ccc(C(=O)O)cc1 [Compound No. 596]"
measured_metric = "inhibition at 100 µM"
unit_name = "%"
assay_value = 22

[[record]]
compound = "CCCCC(=O)N(Cc1ccc(C(=O)O)cc1)c1cccc(C(=O)N2CCOCC2)c1 [Compound No. 90]"
measured_metric = "inhibition at 100 µM"
unit_name = "%"
assay_value = 30

[[record]]
compound = "CCCCCN(C)c1ccc(S(=O)(=O)N2CCOCC2)cc1NCc1ccc(-c2ccccc2-c2nn[nH]n2)cc1 [Compound No. 595]"
measured_metric = "inhibition at 100 µM"
unit_name = "%"
assay_value = 41

[[record]]
compound = "CCCCC(=O)N(Cc1ccc(C(=O)O)cc1)c1cc(C(=O)N2CCOCC2)ccc1C [Compound No. 278]"
measured_metric = "inhibition at 100 µM"
unit_name = "%"
assay_value = 4


* * *

target: angiotensin II receptor subtype 1 (AT1) (Oryctolagus cuniculus, UniProt P34976); construct: receptor: from adrenal glands in rabbits; from tissue; host or cells: rabbit adrenal glands; experiment: Binding assay, angiotensin II receptor subtype 1 (AT1); set-up: species or system rabbit (adrenal glands); settings: tracer 3H angiotensin II, room temperature 3 hours; read-out: IC50 AT1
Measured Metric: log10(IC50) (log10 of the value in µM)

[[record]]
compound = "CCCCCN(Cc1ccc(C(=O)O)cc1)c1cc(C(=O)N2CCOCC2)ccn1"
assay_value = 0.58

[[record]]
compound = "CCCCC(=O)Nc1ccc(C(=O)N2CCOCC2)cc1OCc1ccc(-c2ccccc2-c2nnn[nH]2)cc1"
assay_value = 0.90

[[record]]
compound = "CCCCC(=O)Nc1ccc(C(=O)N2CCOCC2)cc1N(Cc1ccc(-c2ccccc2-c2nn[nH]n2)cc1)Cc1ccc(-c2ccccc2-c2nn[nH]n2)cc1"
assay_value = 1.51

[[record]]
compound = "CCCCC(=O)Nc1ccc(C(=O)N2CCOCC2)cc1NCc1ccc(-c2ccccc2-c2nnn[nH]2)cc1"
assay_value = 0.23

[[record]]
compound = "CCCCC(=O)N(Cc1ccc(-c2ccccc2-c2nn[nH]n2)cc1)c1cc(C(=O)N2CCOCC2)ccc1NC(C)=O"
assay_value = 0.69

